system: HCT116 MTAP-deleted cells; experiment: Cell viability assay (CellTiter-Glo, 7 days), HCT116 MTAP-deleted; details: Homo sapiens, HCT-116, 168 h
Kindly supply the reported CC50 values for the records listed here.

For record CC(=O)N(C)N(Cc1ccc2scnc2c1)C(=O)c1ccc2nc(N)c3cnn(C)c3c2c1 the listed CC50 is < 100 nM

// field: CC50; key: CN(C(=O)N1CC(F)C1)N(Cc1ccc(C(F)(F)F)cn1)C(=O)c1ccc2nc(N)c3cnn(C)c3c2c1 ; value = < 100 nM

Looking up Cn1ncc2c(N)nc3ccc(C(=O)N(Cc4ccc(C(F)(F)F)cn4)N4CC5(CC5)OC4=O)cc3c21 , I found its CC50 recorded as < 100 nM

Lab note: measured CC50 of Cn1ncc2c(N)nc3cc(F)c(C(=O)N(Cc4ccc(C(F)(F)F)cn4)N4C[C@H]5CC[C@@H](C4)O5)cc3c21 was < 100 nM

Entry CC(=O)N(C)N(Cc1nc2cc(Cl)ccc2n1C)C(=O)c1ccc2nc(N)c3cnn(C)c3c2c1 ; CC50 = < 100 nM

So for CN(C(=O)C1(F)CC1)N(Cc1ccc(C(F)(F)F)nn1)C(=O)c1ccc2nc(N)c3cnn(C)c3c2c1 , the logged CC50 turned out to be < 100 nM

Recorded result, CCC(=O)N(CC)N(Cc1ccc(C(F)(F)F)cn1)C(=O)c1ccc2nc(N)c3cnn(C)c3c2c1 , CC50: < 100 nM

* * *

tested on: HCT116 MTAP-deleted cells; test: Cell viability assay (CellTiter-Glo, 7 days), HCT116 MTAP-deleted; details: Homo sapiens, HCT-116, 168 h
Give CC50 for every item shown.

The molecule listed as CN(C(=O)C12CC(C1)C2)N(Cc1ccc(C(F)(F)F)nn1)C(=O)c1ccc2nc(N)c3cnn(C)c3c2c1 has a reported CC50 of 100 to 1000 nM

get_value(item= Cn1ncc2c(N)nc3cc(F)c(C(=O)N(Cc4ccc(C(F)(F)F)cc4F)n4ccnc4)cc3c21 , readout=CC50) returns < 100 nM

CC50 reading for CCOC(=O)NN(C(=O)c1ccc2nc(N)c3cnn(C)c3c2c1)C1COc2cc(C(F)(F)F)ccc21 (stereo not shown) : < 100 nM

Summary for this molecule, CN(C(=O)C1CCC1)N(Cc1ccc(C(F)(F)F)nn1)C(=O)c1ccc2nc(N)c3cnn(C)c3c2c1 : CC50 is < 100 nM

get_value(item= CC(=O)N(C)N(Cc1ccc(C#N)cc1C(F)(F)F)C(=O)c1ccc2nc(N)c3cnn(C)c3c2c1 , readout=CC50) returns 100 to 1000 nM

Form field CC50, entry Cn1ncc2c(N)nc3ccc(C(=O)N(Cc4ccc(C(F)(F)F)cn4)N4CC5(COC5)OC4=O)cc3c21 : 100 to 1000 nM

Measured CC50, CN(C(=O)[C@@H]1CCO1)N(Cc1ccc(C(F)(F)F)cc1F)C(=O)c1ccc2nc(N)c3cnn(C)c3c2c1 : < 100 nM

* * *

I'd be grateful if you could share measured CC50 for these entries.
test system: HCT116 MTAP-deleted cells; assay: Cell viability assay (CellTiter-Glo, 7 days), HCT116 MTAP-deleted; conditions: Homo sapiens, HCT-116, 168 h

Consider CN(C(=O)OC1CCC1)N(Cc1ccc(C(F)(F)F)cn1)C(=O)c1ccc2nc(N)c3cnn(C)c3c2c1 [Example 112] . Its measured CC50 is < 100 nM

Field CC50 (entry Cn1ncc2c(N)nc3ccc(C(=O)N(Cc4ccc(C(F)(F)F)cn4)N4C(=O)[C@H]5CC[C@@H]4C5)cc3c21 [Example 11] ) reads < 100 nM

Please fill in: CC50 reported for CC(=O)N(C)N(Cc1ccc(-c2ccc(C(F)(F)F)cn2)cc1F)C(=O)c1ccc2nc(N)c3cnn(C)c3c2c1 [Example 224] = < 100 nM

* * *

test system: HCT116 MTAP-deleted cells; test: Cell viability assay (CellTiter-Glo, 7 days), HCT116 MTAP-deleted; details: Homo sapiens, HCT-116, 168 h
assay metric: CC50

The value of CC50 measured for the compound CN1CCN(N(Cc2ccc(C(F)(F)F)cn2)C(=O)c2ccc3nc(N)c4cnn(C)c4c3c2)C1=O turned out to be < 100 nM

For record CC(=O)N(C)N(Cc1nc2ccccc2n1C(F)F)C(=O)c1ccc2nc(N)c3cnn(C)c3c2c1 the listed CC50 is 100 to 1000 nM

CC50 reported for this compound Cn1ncc2c(N)nc3cc(F)c(C(=O)N(Cc4nc5cc(Cl)ccc5n4C)N4CCCCC4=O)cc3c21 : < 100 nM

# CC50 of CN(C(=O)C1CC1)N(Cc1ccc(-c2cnn(C)c2)cn1)C(=O)c1ccc2nc(N)c3cnn(C)c3c2c1 = 100 to 1000 nM

Recorded result, Cc1scnc1C(=O)N(C)N(Cc1ccc(C(F)(F)F)cn1)C(=O)c1ccc2nc(N)c3cnn(C)c3c2c1 , CC50: < 100 nM

Looking up C[C@H]1CN(N(Cc2ccc(C(F)(F)F)cn2)C(=O)c2ccc3nc(N)c4cnn(C)c4c3c2)C(=O)O1 (single isomer, unassigned) , I see its CC50 listed as < 100 nM

Lab note: measured CC50 of Cn1ncc2c(N)nc3cc(F)c(C(=O)N(Cc4ccc(C(F)(F)F)nn4)N4CCCC4=O)cc3c21 was < 100 nM

# CC50 (compound: CC(=O)N(C)N(Cc1cc2ccccc2s1)C(=O)c1ccc2nc(N)c3cnn(C)c3c2c1 ) is < 100 nM

Looking up CC(=O)N(C)N(Cc1ccccc1F)C(=O)c1ccc2nc(N)c3cnn(C)c3c2c1 , I found its CC50 recorded as 100 to 1000 nM

Briefly, CC50 measured for Cn1ncc2c(N)nc3ccc(C(=O)N(Cc4ccc(C(F)(F)F)cn4)N4CCCCC4)cc3c21 : < 100 nM

Entry under test: CC(=O)N(C)N(Cc1ccn(-c2c(F)cccc2F)n1)C(=O)c1ccc2nc(N)c3cnn(C)c3c2c1 . Its CC50 was < 100 nM

Sample Cn1ncc2c(N)nc3ccc(C(=O)N(Cc4nc5ccc(F)cc5s4)N4CCCC4=O)cc3c21 ; CC50 observed: < 100 nM

Reported CC50 of Nc1nc2cc(F)c(C(=O)N3CCCN3c3ccc(C(F)(F)F)cn3)cc2c2cscc12 : > 1000 nM

* * *

system: HCT116 MTAP-deleted cells; experiment: Cell viability assay (CellTiter-Glo, 7 days), HCT116 MTAP-deleted; conditions: Homo sapiens, HCT-116, 168 h
assay metric: CC50

Per the record, COC12CC(C(=O)N(C)N(Cc3ccc(C(F)(F)F)cn3)C(=O)c3ccc4nc(N)c5cnn(C)c5c4c3)(C1)C2 [Example 187] has CC50 of < 100 nM

Lab note: measured CC50 of Cn1ncc2c(N)nc3ccc(C(=O)N(Cc4nc(C(F)(F)F)cs4)N4CCCOC4=O)cc3c21 [Example 135] was 100 to 1000 nM

Measured CC50 of CC(=O)N(C)N(Cc1ccc(-c2csc(C(F)(F)F)n2)cc1F)C(=O)c1ccc2nc(N)c3cnn(C)c3c2c1 [Example 250] : < 100 nM

For Cn1ncc2c(N)nc3ccc(C(=O)N(Cc4ccc(C(F)(F)F)cn4)NC(=O)OC4CCC4)cc3c21 [Example 330] the compound record lists CC50 as < 100 nM

Reported CC50 for CN(C(=O)C1CC1)N(Cc1ccc(OC(F)F)cn1)C(=O)c1ccc2nc(N)c3cnn(C)c3c2c1 [Example 291] was < 100 nM

CC50 reading for Cn1ncc2c(N)nc3ccc(C(=O)N(Cc4ccc(C(F)(F)F)cn4)N4C[C@@H]5C[C@H]4CO5)cc3c21 [Example 297] : 100 to 1000 nM

Measured CC50 of Cc1nc2ccc(CN(C(=O)c3ccc4nc(N)c5cnn(C)c5c4c3)N(C)C(=O)C3CC3)cc2s1 [Example 275] : < 100 nM

Quick note, CC50 for CC(=O)N(C)N(Cc1ccc(-c2cnn(C(F)(F)F)c2)cc1F)C(=O)c1ccc2nc(N)c3cnn(C)c3c2c1 [Example 222] landed at < 100 nM

Notebook: CN(C(=O)c1cocn1)N(Cc1ccc(C(F)(F)F)cc1F)C(=O)c1ccc2nc(N)c3cnn(C)c3c2c1 [Example 166] , CC50 read as < 100 nM

Lab note: measured CC50 of CC(=O)N(C)N(Cc1cnc(-c2ccccc2)n1C)C(=O)c1cc2c(cc1F)nc(N)c1cnn(C)c12 [Example 421] was < 100 nM

Entry Cn1ncc2c(N)nc3ccc(C(=O)N(Cc4ccc(C(F)(F)F)cn4)N4CCOCC4(C)C)cc3c21 [Example 292] ; CC50 = 100 to 1000 nM

Input CC(=O)N(C)N(Cc1cccc2c1nnn2C)C(=O)c1ccc2nc(N)c3cnn(C)c3c2c1 [Example 289] . Output CC50: 100 to 1000 nM

// CC(=O)N(C)N(Cc1ccc(C#N)cc1Cl)C(=O)c1ccc2nc(N)c3cnn(C)c3c2c1 [Example 406] : CC50 value = < 100 nM

Entry under test: CN(C(=O)c1ccccn1)N(Cc1ccc(C(F)(F)F)cn1)C(=O)c1ccc2nc(N)c3cnn(C)c3c2c1 [Example 118] . Its CC50 was < 100 nM

Documented CC50 of CC(=O)N(C)N(Cc1nc2ccc(F)cc2s1)C(=O)c1ccc2nc(N)c3cnn(C)c3c2c1 [Example 86] : < 100 nM

Sure, the documented CC50 for CN(C(=O)OCC(F)(F)F)N(Cc1ccc(C(F)(F)F)cn1)C(=O)c1ccc2nc(N)c3cnn(C)c3c2c1 [Example 109] is < 100 nM

Briefly, CC50 measured for CN(C(=O)C1CC1)N(Cc1cccc2c1OC(F)(F)O2)C(=O)c1cc2c(cc1F)nc(N)c1cnn(C)c12 [Example 303] : < 100 nM
